Data provenance is PubChem BioAssay (NCI).

System: XF 498 CNS
Method Description: NCI tumour cell line growth inhibition, 48 h
TGI values by entry
Give the value in µM but do not write µM after it.

CCCCCCCCC(=O)NCCN(CCN)C(=O)CCCCCCCC: 5.43

Prompt: Recorded TGI of CCc1cccc(CC)c1NC(=O)C1=CNC(C)=C(C(=O)Nc2c(CC)cccc2CC)C1c1ccc(O)c(OC)c1 (stereo not given) , please.
Response: 67.3

Prompt: Recorded TGI of CCN(CC)c1ccc(N=C2C=CC(=C(C#N)C#N)c3ccccc32)c(C)c1 , please.
Response: 2.89

Prompt: Recorded TGI of C=C1CC(CC(=O)C(C)CC2CC(=C)C(=O)O2)OC1=O (stereo not given) , please.
Response: 43.3

----------
Tested on: PC-3 prostate
Method Description: NCI tumour cell line growth inhibition, 48 h
Where a SMILES comes first, the peptide text is derived from it. The star is where a group is joined. Fmoc = O=C(OCC1c2ccccc2-c2ccccc21)*; Boc = CC(C)(C)OC(=O)*
TGI values by entry

COc1ccc2oc3c(ccc[n+]3C)c(=O)c2c1: > 100 µM
COc1ccc2c(c1)NC(=O)CN2c1nc(C)nc2ccccc12: > 100 µM
CC(C)(C)OC(=O)NCCCCC(NC(=O)C(Cc1c[nH]c2ccccc12)NC(=O)OCC1c2ccccc2-c2ccccc21)C(=O)O (stereo not drawn) (Fmoc-Trp-Lys(Boc)-OH; configuration not given here): > 100 µM
CC(C)C(=O)CP(=O)(O)O: > 100 µM
O=C1/C(=C/c2cccc(F)c2)CN(C(=O)C(Cl)Cl)C/C1=C\c1cccc(F)c1: 0.539 µM

Prompt: Recorded TGI of CN1C(=O)C(C)(C)Oc2c(-c3cn(C)c(=O)c4[nH]ccc34)cc(S(C)(=O)=O)cc21 , please.
Response: > 100 µM

Prompt: Recorded TGI of C[C@]12CC[C@H]3[C@@H](CCC4=CC(=O)CC[C@@]43C)[C@@H]1CC[C@@H]2OC(=O)c1cccc2c(=O)c3ccccc3[nH]c12 , please.
Response: > 100 µM

Prompt: Recorded TGI of S=c1sscc1N1CCSc2ssc(=S)c21 , please.
Response: > 100 µM

Prompt: Recorded TGI of CCc1ncc(C(C)(O)c2ccccc2)n1Cc1ccccc1 (stereo not drawn) , please.
Response: > 100 µM

Prompt: Recorded TGI of CCCNC(=O)c1cc(NC(=O)c2cc(NC(=O)CCS(=O)(=O)OC)cn2C)cn1C , please.
Response: 98.9 µM

----------
System: M14 melanoma
Method Description: NCI tumour cell line growth inhibition, 48 h; in the data active = GI50 below about 0.43 µM; inactive = the rest
Where a SMILES comes first, the peptide text is derived from it. [ ]: non-standard residue; d: D form. The star is where a group is joined. ξ: configuration not given here. dIva = CC[C@@](C)(N)C(=O)O; Aib = CC(C)(N)C(=O)O; ξP = O=C(O)C1CCCN1; βAla = NCCC(=O)O; X5 = OCN*
Your reply should match one of these outcome classes. active, inactive

CC[C@@](C)(NC(=O)[C@H](C)NC(=O)CCNC(=O)C(C)(C)NC(=O)[C@H](C)NC(=O)[C@@H]1CCCN1C(=O)[C@@](C)(CC)NC(=O)[C@H](Cc1ccccc1)NC(=O)C1CCCN1C(=O)C(C)(C)NC(=O)C1CCCN1C(=O)C(C)(C)NC(C)=O)C(=O)NCCC(=O)N[C@@H](CC(C)C)C(=O)NC(C)(C)C(=O)NCCC(=O)N[C@@H](CC(C)C)C(=O)NC(C)(C)C(=O)NC(C)(C)C(=O)N[C@@H](CC(C)C)C(=O)NCCC(=O)NCO (stereo not given in full) (Ac-[Aib][ξP][Aib][ξP]F[dIva]PA[Aib][βAla]A[dIva][βAla]L[Aib][βAla]L[Aib][Aib]L[βAla]-X5): active

Prompt: How did this test come out for COc1ccc(-c2cc3c(N)ncnc3o2)cc1 ?
Response: inactive

Prompt: How did this test come out for COc1cc2c3c(n(CCCN4CCN(CCO)CC4)c(=O)c2cc1OC)-c1cc2c(cc1C3=O)OCO2 ?
Response: inactive

Prompt: How did this test come out for CC1CC2(C)CC(=O)C1C1C(=O)N(CCN3CCOCC3)C(=O)C12 (stereo not given) ?
Response: inactive

Prompt: How did this test come out for Nc1cc(N)c2nc(-c3ccccc3)c(Oc3ccc(Cl)c(Cl)c3)nc2c1 ?
Response: inactive

Prompt: How did this test come out for COc1ccc(/C=C/C(=O)/C=C(/C=C/c2ccc(OC)c(OC)c2OC)OB(F)F)c(OC)c1OC ?
Response: inactive

Prompt: How did this test come out for O=S1(=O)C=C(c2ccccc2)C(c2ccccc2)=C1 ?
Response: inactive
